B1: His-CAL1(1-160) [Drosophila melanogaster] / CENP-A(101-225)-H4 [Drosophila melanogaster] (parent complex)
chain 1: MANAVVDEETLEAMVYERSKAWSSKMADFASLEDGMEIDVAEFDNLFHGEDEDPDLDDVAKEAVEDNVPDEAKLEMGHINATSVTELTLILCANEDNEAKAEIEEILNQTVPVVEEHKRKWREAGLDRILDTFDEKQIEHHVGRWMRRHNSVYLEASPPK
chain 2: QQESKTRAAGPVAAQNQTRRRKAANPMSRAKRMDREIRRLQHHPGTLIPKLPFSRLVREFIVKYSDDEPLRVTEGALLAMQESCEMYLTQRLADSYMLTKHRNRVTLEVRDMALMAYICDRGRQF
chain 3: not shown

- Variants of: B1
- method notes: Ni-NTA pull-down, band intensity quantification; parent: 4.1; read off a plot
quantity kind: response

Q) Need response of chain 2 S54Q, chain 2 M86A , thanks.
A) ~2.9 ratio CENP-A101-225/H4:CAL11-160

Q) Now this one: chain 2 M86A
A) ~3.6 ratio CENP-A101-225/H4:CAL11-160

Q) Next variant: chain 2 Q90G
A) ~2.8 ratio CENP-A101-225/H4:CAL11-160

Q) Next variant: chain 2 S54Q
A) ~3.5 ratio CENP-A101-225/H4:CAL11-160

Q) Another: chain 2 S54Q, chain 2 M86A, chain 2 Q90G
A) ~0.85 ratio CENP-A101-225/H4:CAL11-160
